Experiment: Plasma concentration in CD-1 mouse at 100 mg/kg, po measured after 24 hrs
Assay type: ADME, organism-based
observation_type: concentration at 24 h (nM)
Hi! Could you send only the number? It should be in nM, unit omitted.

Prompt: What does the data say about its concentration at 24 h? Entry: `CC(C)(C)NS(=O)(=O)c1cccc(NC(=O)c2ncc(NS(C)(=O)=O)nc2N2CCC3(CC2)CC3)n1`
Completion: 30

###

Experiment: Plasma concentration in CD-1 mouse xenografted with human OVCAR-3 cells at 100 mg/kg, po measured after 8 hrs
Assay type: ADME, organism-based
observation_type: concentration at 8 h
Report field: quantity (unit follows the number).

Prompt: What does the data say about its concentration at 8 h? Entry: `CC(C)(C)NS(=O)(=O)c1cccc(NC(=O)c2ncc(NS(C)(=O)=O)nc2N2CCC3(CC2)CC3)n1`
Completion: 5.7 µM
